# targetUnderTest: Homeodomain-interacting protein kinase 1 (Homo sapiens) (UniProt Q86Z02);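 further: each value is a mean percent inhibition of HIPK1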
# Sequence (Q86Z02 whole entry, looked up): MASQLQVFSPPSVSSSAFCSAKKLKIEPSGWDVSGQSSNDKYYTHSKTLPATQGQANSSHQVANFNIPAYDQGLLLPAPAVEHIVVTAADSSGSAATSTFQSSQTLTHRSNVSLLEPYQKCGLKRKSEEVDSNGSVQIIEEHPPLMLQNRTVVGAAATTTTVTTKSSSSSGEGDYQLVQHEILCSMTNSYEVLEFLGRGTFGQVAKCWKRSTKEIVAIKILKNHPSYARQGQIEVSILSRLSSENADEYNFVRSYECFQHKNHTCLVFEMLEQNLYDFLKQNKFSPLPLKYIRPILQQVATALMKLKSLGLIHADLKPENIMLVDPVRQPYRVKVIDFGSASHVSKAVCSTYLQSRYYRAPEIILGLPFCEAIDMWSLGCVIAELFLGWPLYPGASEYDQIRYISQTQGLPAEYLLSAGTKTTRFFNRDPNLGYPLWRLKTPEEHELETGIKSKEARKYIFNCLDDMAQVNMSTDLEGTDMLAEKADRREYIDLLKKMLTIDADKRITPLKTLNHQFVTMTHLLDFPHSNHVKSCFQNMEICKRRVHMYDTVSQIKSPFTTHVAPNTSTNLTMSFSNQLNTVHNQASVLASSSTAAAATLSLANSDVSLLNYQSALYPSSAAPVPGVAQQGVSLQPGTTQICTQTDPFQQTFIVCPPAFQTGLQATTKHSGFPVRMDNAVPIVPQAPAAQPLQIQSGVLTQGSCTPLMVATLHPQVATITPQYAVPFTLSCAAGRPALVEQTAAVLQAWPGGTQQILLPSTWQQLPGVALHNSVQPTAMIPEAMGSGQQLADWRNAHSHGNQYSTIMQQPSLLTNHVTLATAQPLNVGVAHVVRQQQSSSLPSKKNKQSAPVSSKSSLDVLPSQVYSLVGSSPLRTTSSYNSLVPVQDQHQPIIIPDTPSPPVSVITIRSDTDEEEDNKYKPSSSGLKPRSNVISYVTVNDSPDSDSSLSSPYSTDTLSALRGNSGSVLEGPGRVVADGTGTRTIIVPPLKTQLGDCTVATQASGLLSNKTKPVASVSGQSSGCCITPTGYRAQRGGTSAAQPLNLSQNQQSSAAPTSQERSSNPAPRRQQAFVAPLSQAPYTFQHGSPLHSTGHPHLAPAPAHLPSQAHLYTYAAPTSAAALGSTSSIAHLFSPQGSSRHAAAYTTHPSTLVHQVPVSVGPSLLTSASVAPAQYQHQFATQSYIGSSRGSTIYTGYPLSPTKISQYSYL
# conditionSummary: at 0.1 µM
resultType: inhibition (%)
All answers are understood in %, so give the number only.

Worked cases, inhibition given:
> print(dat)
                               smilesrecord  quantityunit  recordedmeasurement
1  COc1cc2ncnc(Nc3ccc4c(cnn4Cc4ccccc4)c3)c2cc1OC             %                -5.38
2  Cc1ccc2c(-c3ccnc(Nc4ccc5c(c4)OCCO5)n3)c(-c3ccc(C(F)(F)F)cc3)nn2n1             %                -4.36

Now turn to the next compound.
input: Item CN(C)C(=O)O[C@@H]1CN[C@@H](C#Cc2cc3ncnc(Nc4ccc(OCc5cccc(F)c5)c(Cl)c4)c3s2)C1 has what recorded inhibition?
output: -3.67

---

# System: Proto-oncogene tyrosine-protein kinase receptor Ret (Homo sapiens), P07949 [Y791F]
# Sequence (P07949 whole entry Y791F): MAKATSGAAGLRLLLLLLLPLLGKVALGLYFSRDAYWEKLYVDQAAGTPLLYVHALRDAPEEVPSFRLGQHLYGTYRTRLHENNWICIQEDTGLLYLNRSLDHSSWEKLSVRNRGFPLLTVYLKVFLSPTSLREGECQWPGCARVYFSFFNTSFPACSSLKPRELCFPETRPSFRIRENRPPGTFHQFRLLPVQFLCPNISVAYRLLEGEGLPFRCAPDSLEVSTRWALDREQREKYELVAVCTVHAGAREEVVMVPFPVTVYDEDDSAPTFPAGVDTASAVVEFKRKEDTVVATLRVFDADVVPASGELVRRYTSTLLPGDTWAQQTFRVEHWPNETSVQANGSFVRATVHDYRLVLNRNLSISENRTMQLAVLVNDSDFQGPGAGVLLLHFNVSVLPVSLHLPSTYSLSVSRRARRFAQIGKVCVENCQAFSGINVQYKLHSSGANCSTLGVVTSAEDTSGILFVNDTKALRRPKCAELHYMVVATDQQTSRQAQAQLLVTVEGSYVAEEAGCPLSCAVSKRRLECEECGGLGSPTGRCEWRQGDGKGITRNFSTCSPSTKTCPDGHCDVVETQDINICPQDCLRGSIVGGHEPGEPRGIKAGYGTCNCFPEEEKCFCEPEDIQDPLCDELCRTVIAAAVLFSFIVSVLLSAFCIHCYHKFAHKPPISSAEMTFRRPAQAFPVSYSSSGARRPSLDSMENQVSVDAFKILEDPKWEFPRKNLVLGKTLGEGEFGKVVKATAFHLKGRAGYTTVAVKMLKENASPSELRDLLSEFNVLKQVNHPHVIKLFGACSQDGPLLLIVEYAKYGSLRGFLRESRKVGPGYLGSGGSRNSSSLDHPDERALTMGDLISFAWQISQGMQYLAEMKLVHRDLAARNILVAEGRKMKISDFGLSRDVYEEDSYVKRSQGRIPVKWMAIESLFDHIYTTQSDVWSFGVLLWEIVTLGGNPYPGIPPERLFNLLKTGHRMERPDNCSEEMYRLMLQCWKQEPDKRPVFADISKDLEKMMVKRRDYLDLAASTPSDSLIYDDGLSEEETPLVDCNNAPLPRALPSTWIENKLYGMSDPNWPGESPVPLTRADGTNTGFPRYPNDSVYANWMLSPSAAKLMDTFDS
# conditionSummary: at 1 µM
Here the recorded inhibition is given for each entry.
Answer format reminder: number followed by unit.

Recorded inhibition, per entry:
> print(dat)
                               smilesrecord  recordedmeasurement
1  Cc1cc(-c2ccccn2)cc(C)c1/C=C/c1cncc(-c2nn[nH]n2)c1                9.36%
2  Cc1ccc(Nc2ccnc(Nc3cccc(C(N)=O)c3)n2)cc1O                88.7%
3  Cc1ccc(NC(=O)CC2CC2)cc1-c1ccc(C(=O)NCC2CC2)cc1                28.8%
4  c1ccc(Cc2nc3ccc(Nc4ncnc5ccccc45)cc3[nH]2)cc1                 6.8%
5  [O-][S+]1CCN(Cc2ccc(-c3ccc4ncnc(Nc5ccc(OCc6ccccc6)c(Cl)c5)c4c3)o2)CC1                5.41%

input: Request the reported inhibition associated with NS(=O)(=O)c1ccc(NC=C2C(=O)Nc3ccc4ncsc4c32)cc1
output: 72.4%

---

# targetUnderTest: MAP/microtubule affinity-regulating kinase 4 (Homo sapiens);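 further: values are averaged percent inhibition of MARK4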
# Sequence (whole entry): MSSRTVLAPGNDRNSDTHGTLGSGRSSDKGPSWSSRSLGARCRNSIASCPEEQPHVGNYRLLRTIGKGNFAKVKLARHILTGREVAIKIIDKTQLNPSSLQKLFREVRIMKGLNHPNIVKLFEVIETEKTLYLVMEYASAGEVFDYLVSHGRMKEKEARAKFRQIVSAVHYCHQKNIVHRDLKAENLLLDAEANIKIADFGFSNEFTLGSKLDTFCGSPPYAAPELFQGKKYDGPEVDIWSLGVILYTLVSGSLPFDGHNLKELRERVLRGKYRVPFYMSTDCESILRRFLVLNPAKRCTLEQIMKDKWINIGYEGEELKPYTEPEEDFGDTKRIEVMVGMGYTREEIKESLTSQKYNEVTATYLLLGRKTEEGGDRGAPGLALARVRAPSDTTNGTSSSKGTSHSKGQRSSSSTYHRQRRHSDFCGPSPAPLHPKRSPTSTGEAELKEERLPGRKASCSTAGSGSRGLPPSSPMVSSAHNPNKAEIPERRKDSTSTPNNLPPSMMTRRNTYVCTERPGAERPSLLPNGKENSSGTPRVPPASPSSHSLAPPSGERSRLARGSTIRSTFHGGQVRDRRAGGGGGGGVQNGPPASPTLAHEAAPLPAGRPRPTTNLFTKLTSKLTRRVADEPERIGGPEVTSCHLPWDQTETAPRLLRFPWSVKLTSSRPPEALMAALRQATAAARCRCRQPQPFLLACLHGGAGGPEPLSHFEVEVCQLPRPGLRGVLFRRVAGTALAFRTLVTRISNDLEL
# conditionSummary: at 0.1 µM
This section presents compounds with their documented inhibition values.
Number in %, nothing else.

Use the examples below as a reference point.
> print(dat)
                               smilesrecord  resulttype  quantityunit  recordedmeasurement
1  CCS(=O)(=O)c1ccc(OC)c(Nc2ncc(-c3cccc(OC)c3)o2)c1  inhibition             %                 0.15
2  NC(=O)c1sc(-n2cnc3ccccc32)cc1OCc1ccccc1Br  inhibition             %                 1.43
3  NS(=O)(=O)c1ccc(NC=C2C(=O)Nc3ccc4ncsc4c32)cc1  inhibition             %                   21

input: Look at this compound and give its reported inhibition. Cc1ccc(NC(=O)CC2CC2)cc1-c1ccc(C(=O)NCC2CC2)cc1
output: 1

input: Endpoint output: inhibition of CN(C)C(=O)O[C@@H]1CN[C@@H](C#Cc2cc3ncnc(Nc4ccc(OCc5cccc(F)c5)c(Cl)c4)c3s2)C1 . Value?
output: 0.74

input: Please look up its inhibition: COc1cc(Nc2nccc(-c3cnn4ncccc34)n2)cc(OC)c1
output: 3.44

---

# targetUnderTest: Vascular endothelial growth factor receptor 1 (Homo sapiens) (UniProt P17948)
# Sequence (P17948 whole entry): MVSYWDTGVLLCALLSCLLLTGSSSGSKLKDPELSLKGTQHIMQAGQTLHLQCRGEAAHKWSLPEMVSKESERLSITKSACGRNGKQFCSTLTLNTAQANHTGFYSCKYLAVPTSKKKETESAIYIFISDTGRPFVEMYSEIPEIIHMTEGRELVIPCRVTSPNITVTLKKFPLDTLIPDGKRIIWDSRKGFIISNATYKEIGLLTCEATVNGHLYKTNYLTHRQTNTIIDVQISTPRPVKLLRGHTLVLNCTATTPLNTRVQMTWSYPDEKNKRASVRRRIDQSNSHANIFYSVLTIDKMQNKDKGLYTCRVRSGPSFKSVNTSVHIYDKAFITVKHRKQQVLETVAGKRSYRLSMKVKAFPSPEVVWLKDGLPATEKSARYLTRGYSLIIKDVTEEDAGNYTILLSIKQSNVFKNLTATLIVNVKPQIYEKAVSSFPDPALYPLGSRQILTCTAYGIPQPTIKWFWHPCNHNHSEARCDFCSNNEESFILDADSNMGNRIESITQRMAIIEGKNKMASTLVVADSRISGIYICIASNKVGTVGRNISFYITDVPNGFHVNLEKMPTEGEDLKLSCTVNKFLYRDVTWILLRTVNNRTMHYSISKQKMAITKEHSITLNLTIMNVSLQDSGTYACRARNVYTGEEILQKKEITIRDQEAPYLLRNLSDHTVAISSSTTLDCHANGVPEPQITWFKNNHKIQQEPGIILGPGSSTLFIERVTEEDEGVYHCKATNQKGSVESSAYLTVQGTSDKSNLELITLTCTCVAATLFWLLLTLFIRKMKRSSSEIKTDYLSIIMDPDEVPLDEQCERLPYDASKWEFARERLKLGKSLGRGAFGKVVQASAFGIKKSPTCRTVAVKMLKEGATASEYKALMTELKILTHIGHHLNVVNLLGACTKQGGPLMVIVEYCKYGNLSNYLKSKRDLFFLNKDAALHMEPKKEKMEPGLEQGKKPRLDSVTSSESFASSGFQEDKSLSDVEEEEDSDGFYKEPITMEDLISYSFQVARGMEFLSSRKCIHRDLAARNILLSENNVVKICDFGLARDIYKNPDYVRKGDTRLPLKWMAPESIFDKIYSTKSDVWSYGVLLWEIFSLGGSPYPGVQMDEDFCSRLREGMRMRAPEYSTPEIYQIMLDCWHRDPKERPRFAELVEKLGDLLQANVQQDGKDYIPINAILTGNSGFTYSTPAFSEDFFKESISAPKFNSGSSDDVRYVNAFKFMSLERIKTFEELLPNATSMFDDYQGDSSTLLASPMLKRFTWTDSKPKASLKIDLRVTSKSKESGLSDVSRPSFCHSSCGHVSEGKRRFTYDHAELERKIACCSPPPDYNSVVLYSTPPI
# conditionSummary: at 0.1 µM
resultType: inhibition (%)
Please state the figure in %; there is no need to write the unit.

Field: example entries. Status: answers known.
> print(dat)
                               smilesrecord                           targetundertest  recordedmeasurement
1  Nc1nccc(C#Cc2cncnc2Nc2ccc(OCc3cccc(F)c3)c(Cl)c2)n1  Vascular endothelial growth factor receptor 1 (Homo sapiens) (UniProt P17948)                 2.06
2  NS(=O)(=O)c1ccc(NC=C2C(=O)Nc3ccc4ncsc4c32)cc1  Vascular endothelial growth factor receptor 1 (Homo sapiens) (UniProt P17948)                 19.3
3  NS(=O)(=O)c1cccc(-c2cc3ccncc3cc2OCc2ccccc2)c1  Vascular endothelial growth factor receptor 1 (Homo sapiens) (UniProt P17948)                 1.89

input: Recorded inhibition of NS(=O)(=O)c1ccc(-c2cc3ccncc3cc2OCc2ccccc2)cc1 , please.
output: 0.22

input: Query: inhibition; subject: CCS(=O)(=O)c1ccc(OC)c(Nc2ncc(-c3cccc(OC)c3)o2)c1
output: 9.91

input: Suppose we examine the compound Cc1ccc(C(=O)NC2CC2)cc1-c1ccc2[nH]ncc2c1 ; what inhibition value has been reported?
output: -2.04

input: Tell me the measured inhibition of CS(=O)(=O)CCNCc1nc(-c2ccc3ncnc(Nc4ccc(OCc5cccc(C(F)(F)F)c5)cc4)c3c2)cs1 , please.
output: -0.29

input: Could you tell me which inhibition is on file for C[C@@H](Oc1cc(-n2cnc3ccc(OCC4CCN(C)CC4)cc32)sc1C(N)=O)c1ccccc1C(F)(F)F ?
output: -0.83

input: // inhibition lookup, key: Cc1ccc(Nc2ccnc(Nc3cccc(C(N)=O)c3)n2)cc1O
output: 69.9

input: // lookup inhibition for COC(=O)c1ccc2c(c1)C(=Cc1cc(Br)c(O)c(Br)c1)C(=O)N2
output: 2.43

input: Sample CN1CCN(C(=O)c2ccc(NC(=O)Nc3ccc(N(C)c4ccnc(Nc5ccc(CS(C)(=O)=O)cc5)n4)cc3)cc2)CC1 — what was its inhibition?
output: 21.4

input: Look at this compound and give its reported inhibition. Cc1nc(-c2ccccc2)n2nc(NCCCN3CCOCC3)ncc12
output: 2.94

input: If you can, please state the reported inhibition value of CC(C)c1ccc2c(c1)NC(=O)/C2=N/Nc1ccc(S(N)(=O)=O)cc1 .
output: 1.02

input: Endpoint output: inhibition of CS(=O)(=O)Nc1cccc(-c2ccc3c(NC(=O)C4CC4)n[nH]c3c2)c1 . Value?
output: -2.92

---

# targetUnderTest: Casein kinase II subunit alpha (Homo sapiens) (UniProt P68400);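 further: reported value is the mean CK2 inhibition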
# Sequence (P68400 whole entry, looked up): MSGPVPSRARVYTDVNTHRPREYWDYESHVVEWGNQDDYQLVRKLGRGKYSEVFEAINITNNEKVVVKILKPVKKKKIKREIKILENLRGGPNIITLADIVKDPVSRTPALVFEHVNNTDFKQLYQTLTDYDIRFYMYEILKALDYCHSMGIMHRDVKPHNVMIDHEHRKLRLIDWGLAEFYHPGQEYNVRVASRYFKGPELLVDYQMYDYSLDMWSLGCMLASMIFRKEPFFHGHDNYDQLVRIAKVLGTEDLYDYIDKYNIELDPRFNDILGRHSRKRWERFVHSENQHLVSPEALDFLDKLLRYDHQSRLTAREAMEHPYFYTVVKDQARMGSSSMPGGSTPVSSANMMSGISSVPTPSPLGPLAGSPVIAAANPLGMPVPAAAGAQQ
# conditionSummary: at 1 µM
inhibition listing for selected molecules.
Record the value in %, omitting the unit from your answer.

Worked examples, 4 molecules total:
> print(dat)
                               smilesrecord  quantityunit  recordedmeasurement
1             CCn1c(-c2nonc2N)nc2ccc(F)cc21             %                 8.79
2   Cc1nc(-c2ccccc2)n2nc(NCCCN3CCOCC3)ncc12             %                 6.84
3  Cc1ccc(NC(=O)CC2CC2)cc1-c1ccc(C(=O)NCC2CC2)cc1             %                 8.23
4   Cc1ccc(O)cc1Nc1ccnc2ccc(S(C)(=O)=O)cc12             %                 8.35

Shift focus to the following entry.
input: Tell me the measured inhibition of NS(=O)(=O)c1ccc(NC=C2C(=O)Nc3ccc4ncsc4c32)cc1 , please.
output: 46.4

---

Below, each entry is listed with its recorded inhibition.
# targetUnderTest: Vascular endothelial growth factor receptor 1 (Homo sapiens) (UniProt P17948)
# conditionSummary: at 1 µM
# Description: GSK_PKIS: FLT1 mean inhibition at 1 uM [Nanosyn]
Field format: number, assumed %, no unit text.

Here is how some molecules turned out for inhibition.
> print(dat)
                             smilesrecord  recordedmeasurement
1  N#Cc1cccc(Nc2nccc(-c3cnn4ncccc34)n2)c1                 28.3
2   COC(=O)c1cncc(/C=C/c2c(C)cc(O)cc2C)c1                 0.15

input: May I ask what inhibition has been recorded for CN(C)CCCn1c(-c2nonc2N)nc2cnccc21 ?
output: 2.77

input: # query: inhibition of entry COc1ccc2ncnc(Nc3ccc(OCc4ccccc4)cc3)c2c1
output: 1.06

input: Reported inhibition for CCn1c(-c2nonc2N)nc2c(C#CC(C)(C)O)nc(OCCNC)cc21 : what is it?
output: 10.2

input: Name the reported inhibition value associated with the molecule Oc1cccc(-c2nc(-c3ccccc3)[nH]c2-c2ccncc2)c1
output: 43.8

input: // query inhibition value for entry O=S(=O)(CCOCc1ccc(-c2ccc3ncnc(Nc4ccc(OCc5cccc(F)c5)c(Cl)c4)c3c2)o1)c1ccccc1
output: 0.57
